Measured Emax of individual entries
- Measured On: F508delCFTR (Homo sapiens, UniProt P13569, DEL508-508)
- Construct: expressed in transfected cells; host or cells: CFBE41o- human lung-derived epithelial cells (CFBE41o-F508delCFTR-HRP), doxycycline-inducible
- Sequence (P13569 with tags, fused parts or gaps DEL508-508): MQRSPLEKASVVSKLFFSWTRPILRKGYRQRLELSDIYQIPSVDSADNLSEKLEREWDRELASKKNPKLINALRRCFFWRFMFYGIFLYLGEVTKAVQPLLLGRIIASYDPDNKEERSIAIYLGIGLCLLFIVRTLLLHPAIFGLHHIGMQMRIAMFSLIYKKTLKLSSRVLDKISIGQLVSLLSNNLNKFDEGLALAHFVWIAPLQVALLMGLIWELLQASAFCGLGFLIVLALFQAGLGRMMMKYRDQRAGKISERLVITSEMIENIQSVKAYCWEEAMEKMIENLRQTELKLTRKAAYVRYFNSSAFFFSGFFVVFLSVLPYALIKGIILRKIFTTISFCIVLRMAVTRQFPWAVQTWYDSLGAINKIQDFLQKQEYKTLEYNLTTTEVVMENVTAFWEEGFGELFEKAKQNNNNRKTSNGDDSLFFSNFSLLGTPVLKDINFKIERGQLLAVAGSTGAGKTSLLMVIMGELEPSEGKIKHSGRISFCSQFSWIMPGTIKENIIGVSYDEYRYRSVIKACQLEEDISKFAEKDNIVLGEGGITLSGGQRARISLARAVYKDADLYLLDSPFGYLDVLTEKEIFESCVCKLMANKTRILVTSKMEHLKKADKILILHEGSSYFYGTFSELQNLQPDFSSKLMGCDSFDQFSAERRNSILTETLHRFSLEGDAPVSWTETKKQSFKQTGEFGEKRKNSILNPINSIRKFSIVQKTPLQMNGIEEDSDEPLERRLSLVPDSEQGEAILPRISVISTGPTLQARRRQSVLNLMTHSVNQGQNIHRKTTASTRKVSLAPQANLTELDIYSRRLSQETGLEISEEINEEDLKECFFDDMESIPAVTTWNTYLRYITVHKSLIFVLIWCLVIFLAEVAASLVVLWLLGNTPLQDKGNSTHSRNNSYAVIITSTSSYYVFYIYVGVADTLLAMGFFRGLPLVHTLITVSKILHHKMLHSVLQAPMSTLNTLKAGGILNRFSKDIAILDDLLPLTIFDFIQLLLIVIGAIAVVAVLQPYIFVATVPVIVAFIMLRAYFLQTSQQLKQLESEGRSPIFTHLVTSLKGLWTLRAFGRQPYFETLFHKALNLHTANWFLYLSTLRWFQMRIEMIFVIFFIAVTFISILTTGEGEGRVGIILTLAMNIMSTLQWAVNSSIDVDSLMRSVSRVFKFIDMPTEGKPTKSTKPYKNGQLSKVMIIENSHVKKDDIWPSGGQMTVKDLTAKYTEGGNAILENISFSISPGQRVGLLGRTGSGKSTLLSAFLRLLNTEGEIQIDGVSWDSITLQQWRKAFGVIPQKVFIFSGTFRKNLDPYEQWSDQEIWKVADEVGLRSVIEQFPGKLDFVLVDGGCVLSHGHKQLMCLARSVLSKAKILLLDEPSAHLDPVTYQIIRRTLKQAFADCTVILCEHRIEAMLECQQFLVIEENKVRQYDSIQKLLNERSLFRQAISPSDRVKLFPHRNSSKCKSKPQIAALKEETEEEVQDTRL
- Assay Text: Cell Surface Expression-Horse Radish Peroxidase (CSE-HRP) assay, test compound without co-corrector;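 as to Emax: percent of on-plate 2 µM positive control corrector response over DMSO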
- Assay type: cell-based
- Experimental Setup: maximum at any tested concentration, normalized to positive control, without co-corrector

CCOc1ccc(Br)c2c1CCCC2C(=O)NS(=O)(=O)c1cccc2ccccc12 (stereo not drawn) [Example I-32] :: ≥ 150%
COc1ccc(C2CCC2)c2c1[C@@H](C(=O)NS(=O)(=O)c1cccc3cnn(C)c13)C2 (single isomer, unassigned) [Example I-143] :: 50 to 150%
CCCS(=O)(=O)NC(=O)C1CCc2c(Cl)cccc21 (stereo not drawn) [III-6] :: < 50%
COc1cccc2c1CCC2C(=O)NS(=O)(=O)c1cccc(F)c1C#N (stereo not drawn) [III-62] :: < 50%
COc1ccc(-c2ccccc2Oc2ccccc2)c2c1CCCC2C(=O)NS(=O)(=O)c1cccc2ccccc12 (stereo not drawn) [II-99] :: ≥ 150%

Could you now look at the following molecule, please?
### Prompt Provide only the value of recorded Emax for COc1ccccc1S(=O)(=O)NC(=O)C1CCc2c(OC)cccc21 (stereo not drawn) [III-12]
### Response < 50%

----------
- Measured On: F508delCFTR (Homo sapiens, UniProt P13569, DEL508-508)
- Construct: expressed in transfected cells; host or cells: CFBE41o- human lung-derived epithelial cells (CFBE41o-F508delCFTR-HRP), doxycycline-inducible
- Assay Text: Cell Surface Expression-Horse Radish Peroxidase (CSE-HRP) assay, test compound with co-corrector;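 also: percent of 2 µM positive control corrector over DMSO; co-corrector is that same compound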
- Type: cell-based
- Experimental Setup: maximum at any tested concentration, normalized to positive control, with 2 μM co-corrector
Observation Type: Maximum % activity (with co-corrector)

The following compounds have reported results that may help.
C[C@@]1(C(=O)NS(=O)(=O)c2cccc3ccccc23)CCc2cccc(Cl)c21 :: +++ (≥350)
COc1ccc(C)c2c1C(C(=O)NS(=O)(=O)c1cccc3ccccc13)CC2 (stereo not drawn) :: +++ (≥350)
COc1ccc2c(c1)CC[C@]2(C)C(=O)NS(=O)(=O)c1cccc2ccccc12 :: +++ (≥350)
COc1ccc(Br)c2c1[C@@H](C(=O)NS(=O)(=O)c1cccc3ncccc13)CCC2 (single isomer, unassigned) :: +++ (≥350)
O=C(NS(=O)(=O)c1cccc2ccccc12)C1CCCc2c1ccc1c2OCO1 (stereo not drawn) :: +++ (≥350)

### Prompt Provide only the value of recorded Maximum % activity (with co-corrector) for COc1cccc2c1CCC2C(=O)NS(=O)(=O)c1ccc(C)cn1 (stereo not drawn)
### Response + (<150)

### Prompt Provide only the value of recorded Maximum % activity (with co-corrector) for COc1cccc2c1CCC2C(=O)NS(=O)(=O)c1cccc(Cl)c1F (stereo not drawn)
### Response + (<150)

### Prompt Provide only the value of recorded Maximum % activity (with co-corrector) for COc1ccc(C2CCC2)c2c1[C@@H](C(=O)NS(=O)(=O)c1cccc3c1CCCN3)C2 (single isomer, unassigned)
### Response +++ (≥350)

----------
- Measured On: F508delCFTR (Homo sapiens, UniProt P13569, DEL508-508)
- Construct: expressed in transfected cells; host or cells: CFBE41o- human lung-derived epithelial cells (CFBE41o-F508delCFTR-HRP), doxycycline-inducible
- Assay Text: Cell Surface Expression-Horse Radish Peroxidase (CSE-HRP) assay, test compound without co-corrector
- Assay type: cell-based
- Experimental Setup: test compound without co-corrector
Measured EC50 of individual entries

The following molecules have reported results that may help.
COc1cccc2c1CC[C@]2(C)C(=O)NS(=O)(=O)c1cccc2ccccc12 :: 3 to 10 µM
COc1cccc2c1CCC2C(=O)NS(=O)(=O)c1ccc(C)cn1 (centres unmarked) :: ≥ 10 µM
O=C(NS(=O)(=O)c1cccc2ccccc12)C1CCCc2c1ccc1c2OCO1 (centres unmarked) :: 3 to 10 µM
Cc1ccccc1S(=O)(=O)NC(=O)C1CCc2c(-c3cccnc3C)cccc21 (centres unmarked) :: ≥ 10 µM
COc1cccc2c1CCC2C(=O)NS(=O)(=O)Cc1ccccc1 (centres unmarked) :: ≥ 10 µM
COc1cccc2c1CCC2C(=O)NS(=O)(=O)C1CCOCC1 (centres unmarked) :: ≥ 10 µM

### Prompt Return reported EC50 for target or system F508delCFTR (Homo sapiens, UniProt P13569, DEL508-508), item COc1ccc(C2CCC2)c2c1[C@@H](C(=O)NS(=O)(=O)c1cccc3nc(C)ccc13)CC2 .
### Response 3 to 10 µM

### Prompt Return reported EC50 for target or system F508delCFTR (Homo sapiens, UniProt P13569, DEL508-508), item O=C(NS(=O)(=O)c1cccc2ccccc12)C1(CN2CCCC2)CCc2c(Cl)cccc21 (centres unmarked) .
### Response 3 to 10 µM
